These entries and their values trace back to patent US20210276978A1.

- Study Target: HDAC2 (Homo sapiens, UniProt Q92769)
- Construct: host or cells: SH-SY5Y cells
- Sequence (Q92769 whole entry): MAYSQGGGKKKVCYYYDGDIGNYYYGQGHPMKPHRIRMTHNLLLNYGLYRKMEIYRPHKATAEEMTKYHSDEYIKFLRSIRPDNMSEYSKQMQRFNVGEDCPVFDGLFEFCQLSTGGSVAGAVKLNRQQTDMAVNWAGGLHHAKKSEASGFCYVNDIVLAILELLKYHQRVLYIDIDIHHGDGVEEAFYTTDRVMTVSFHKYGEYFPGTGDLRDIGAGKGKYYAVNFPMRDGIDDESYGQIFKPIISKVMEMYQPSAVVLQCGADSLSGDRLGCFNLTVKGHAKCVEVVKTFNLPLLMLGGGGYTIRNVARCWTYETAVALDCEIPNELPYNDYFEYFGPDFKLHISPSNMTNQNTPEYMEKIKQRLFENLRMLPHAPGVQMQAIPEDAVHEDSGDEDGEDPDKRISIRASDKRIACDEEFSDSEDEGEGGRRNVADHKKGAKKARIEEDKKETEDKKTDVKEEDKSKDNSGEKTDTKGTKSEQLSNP
- Test Name: HDAC2 enzymatic inhibition assay in SH-SY5Y cell lysate with an exogenous substrate (HDAC-Glo 2)
- Type: cell-based
- Measurement Parameters: SH-SY5Y cells, five hours incubation, HDAC-Glo 2 reagent; class symbols
pIC50: −log10 of the molar value.
// reported pIC50 per item

Nc1ccc(-c2cccs2)nc1NC(=O)N1CCC(c2ncccn2)C1 (stereo not shown)    6.00 to 6.30
Cc1cc(C)nc(C2CCN(C(=O)Nc3nc(-c4ccc(F)cc4F)ccc3N)C2)n1 (stereo not shown)    < 5.70
Nc1ccc(-c2ccc(F)cc2F)nc1NC(=O)N1CCC(F)(c2ncccn2)C1 (stereo not shown) [Compound 29]    6.00 to 6.30

Please look at the following molecule next.
Exercise: State the recorded pIC50 for this entry: Nc1ccc(-c2ccc(F)s2)nc1NC(=O)N1CCC(c2ncc(F)cn2)C1 (single isomer, unassigned) [Compound 44]
Solution: 6.00 to 6.30

###

- Study Target: HDAC2 (Homo sapiens, UniProt Q92769)
- Construct: host or cells: SH-SY5Y cells
- Test Name: HDAC2 enzymatic inhibition assay in SH-SY5Y cell lysate with an exogenous substrate (HDAC-Glo 2)
- Format: cell-based
- Measurement Parameters: SH-SY5Y cells, five hours incubation, HDAC-Glo 2 reagent; class symbols
// reported IC50 per item

// known answers, use as guide
Nc1ccc(-c2ccc(F)cc2)nc1NC(=O)N1CCC(F)(c2ncccn2)C1 (single isomer, unassigned) [Compound 54]    1000 to 2000 nM
Nc1ccc(-c2ccc(F)cc2F)nc1NC(=O)N1CCC(c2cccnn2)C1 (stereo not drawn)    1000 to 2000 nM
Cc1cnc(CC2CCN(C(=O)Nc3nc(-c4ccc(F)cc4F)ccc3N)C2)o1 (stereo not drawn)    > 2000 nM
Nc1ccc(-c2ccc(F)s2)nc1NC(=O)N1CCC(c2ncc(F)cn2)C1 (single isomer, unassigned) [Compound 43]    1000 to 2000 nM
Nc1ccc(-c2ccc(F)cc2)nc1NC(=O)N1CCC(c2ncc(F)cn2)C1 (single isomer, unassigned) [Compound 20E1]    1000 to 2000 nM

Exercise: State the recorded IC50 for this entry: Cc1cnc(C2CCN(C(=O)Nc3nc(-c4ccc(F)cc4F)ccc3N)C2)cn1 (stereo not drawn)
Solution: 500 to 1000 nM

Exercise: Now consider Nc1ccc(-c2ccc(F)cc2F)nc1NC(=O)N1CCC(Oc2ncccn2)C1 (stereo not drawn) and answer again.
Solution: > 2000 nM

Exercise: Now consider Nc1ccc(-c2ccc(F)cc2F)nc1NC(=O)N1CCC(Cn2ccnc2)C1 (stereo not drawn) and answer again.
Solution: > 2000 nM

Exercise: Now consider Nc1ccc(-c2ccc(F)cc2)nc1NC(=O)N1CCC(c2ncc(F)cn2)C1 (single isomer, unassigned) [Compound 20E2] and answer again.
Solution: 500 to 1000 nM

Exercise: Now consider Cc1ccnc(C2CCN(C(=O)Nc3nc(-c4ccc(F)cc4F)ccc3N)C2)n1 (stereo not drawn) and answer again.
Solution: 1000 to 2000 nM

Exercise: Now consider Nc1ccc(-c2ccc(F)cc2)nc1NC(=O)N1CCC(F)(c2ncccn2)C1 (single isomer, unassigned) [Compound 55] and answer again.
Solution: 500 to 1000 nM

Exercise: Now consider Cc1nnc(C2CCN(C(=O)Nc3nc(-c4ccc(F)cc4F)ccc3N)C2)s1 (stereo not drawn) and answer again.
Solution: 1000 to 2000 nM

Exercise: Now consider Nc1ccc(-c2ccc(F)cc2F)nc1NC(=O)N1CCC(Cc2ncccn2)C1 (single isomer, unassigned) [Compound 25E2] and answer again.
Solution: 500 to 1000 nM

Exercise: Now consider Nc1ccc(-c2ccc(F)cc2F)nc1NC(=O)N1CCC(Cc2cccnc2)C1 (stereo not drawn) and answer again.
Solution: > 2000 nM

Exercise: Now consider Nc1ccc(-c2ccc(F)s2)nc1NC(=O)N1CCC(c2ncccn2)C1 (single isomer, unassigned) [Compound 40] and answer again.
Solution: 500 to 1000 nM

###

A set of compounds tested on Full length Human HDAC1 (Homo sapiens, UniProt Q13547), with measured IC50:

// known answers, use as guide
Nc1ccc(-c2ccc(F)cc2F)nc1NC(=O)N1CCC(Cc2ncccn2)C1 (single isomer, unassigned) [Compound 25E1]    1000 to 2000 nM
Nc1ccc(-c2ccc(F)cc2)nc1NC(=O)N1CCC(c2ncccn2)C1 (stereo not shown) [Compound 19]    < 500 nM
Cc1ccnc(C2CCN(C(=O)Nc3nc(-c4ccc(F)cc4)ccc3N)C2)n1 (single isomer, unassigned)    1000 nM
Nc1ccc(-c2ccc(F)cc2F)nc1NC(=O)N1CCC(c2ncc(F)cn2)C1 (single isomer, unassigned) [Compound 14E2]    500 to 1000 nM
Nc1ccc(-c2ccc(F)cc2F)nc1NC(=O)N1CCC(c2ccccn2)C1 (stereo not shown)    500 to 1000 nM

Exercise: State the recorded IC50 for this entry: Nc1ccc(-c2ccc(F)cc2)nc1NC(=O)N1CCC(c2ncc(F)cn2)C1 (single isomer, unassigned)
Solution: < 500 nM

Exercise: Now consider Nc1ccc(-c2ccc(F)cc2F)nc1NC(=O)N1CCC(Cc2ncccn2)C1 (stereo not shown) [Compound 24] and answer again.
Solution: 1000 to 2000 nM

###

// reported IC50 per item
- Study Target: HDAC2 (Homo sapiens)
- Construct: host or cells: SH-SY5Y cells
- Test Name: HDAC2 enzymatic inhibition assay in SH-SY5Y cell lysate with an exogenous substrate (HDAC-Glo 2)
- Assay type: cell-based
- Measurement Parameters: SH-SY5Y cells, five hours incubation, HDAC-Glo 2 reagent; class symbols

// known answers, use as guide
Cc1cnc(C2CCN(C(=O)Nc3nc(-c4ccc(F)cc4F)ccc3N)C2)s1 (centres unmarked)    > 2000 nM
Nc1ccc(-c2ccc(F)cc2F)nc1NC(=O)N1CCC(Cc2ncccn2)C1 (centres unmarked) [Compound 24]    1000 to 2000 nM
Nc1ccc(-c2ccc(F)cc2F)nc1NC(=O)N1CCC(c2ccccc2)C1 (centres unmarked)    > 2000 nM
Nc1ccc(-c2ccc(F)cc2F)nc1NC(=O)N1CCC(Cn2cccn2)C1 (centres unmarked)    > 2000 nM

Please look at the following compound next.
Exercise: State the recorded IC50 for this entry: Cc1cc(C2CCN(C(=O)Nc3nc(-c4ccc(F)cc4F)ccc3N)C2)nc(C)n1 (centres unmarked)
Solution: > 2000 nM

###

- Study Target: HDAC2 (Homo sapiens, UniProt Q92769)
- Construct: host or cells: SH-SY5Y cells
- Test Name: HDAC2 enzymatic inhibition assay in SH-SY5Y cell lysate with an exogenous substrate (HDAC-Glo 2)
- Assay type: cell-based
- Measurement Parameters: SH-SY5Y cells, five hours incubation, HDAC-Glo 2 reagent; class symbols
// reported IC50 per item

Exercise: // fetch HDAC2 (Homo sapiens, UniProt Q92769) IC50 for Cc1cnc(C2CCN(C(=O)Nc3nc(-c4ccc(F)cc4F)ccc3N)C2)nc1 (stereo not shown) [Compound 33]
Solution: > 2000 nM

Exercise: Now consider Cc1nccc(C2CCN(C(=O)Nc3nc(-c4ccc(F)cc4F)ccc3N)C2)n1 (stereo not shown) [Compound 15] and answer again.
Solution: > 2000 nM

Exercise: Now consider Nc1ccc(-c2ccc(F)cc2)nc1NC(=O)N1CCC(F)(c2ncc(F)cn2)C1 (single isomer, unassigned) [Compound 53] and answer again.
Solution: 500 to 1000 nM

Exercise: Now consider Nc1ccc(-c2ccc(F)cc2)nc1NC(=O)N1CCC(c2ncc(F)cn2)C1 (stereo not shown) [Compound 20] and answer again.
Solution: 1000 to 2000 nM

###

- Study Target: HDAC2 (Homo sapiens, UniProt Q92769)
- Construct: host or cells: SH-SY5Y cells
- Test Name: HDAC2 enzymatic inhibition assay in SH-SY5Y cell lysate with an exogenous substrate (HDAC-Glo 2)
- Assay type: cell-based
- Measurement Parameters: SH-SY5Y cells, five hours incubation, HDAC-Glo 2 reagent; class symbols
pIC50: −log10 of the molar value.
Property: pIC50

// known answers, use as guide
Nc1ccc(-c2cccs2)nc1NC(=O)N1CCC(c2ncc(F)cn2)C1 (stereo not shown) [Compound 49]    5.70 to 6.00
Nc1ccc(-c2ccc(F)cc2F)nc1NC(=O)N1CC[C@H](Oc2cccnc2)C1 [Compound 6]    < 5.70
Nc1ccc(-c2ccc(F)cc2F)nc1NC(=O)N1CCC(c2ncc(F)cn2)C1 (stereo not shown) [Compound 14]    5.70 to 6.00
Nc1ccc(-c2ccc(F)cc2F)nc1NC(=O)N1CCC(F)(c2ncccn2)C1 (single isomer, unassigned) [Compound 29E1]    6.00 to 6.30
Nc1ccc(-c2ccccc2F)nc1NC(=O)N1CCC(c2ncc(F)cn2)C1 (stereo not shown) [Compound 21]    5.70 to 6.00

Exercise: State the recorded pIC50 for this entry: Nc1ccc(-c2ccc(F)cc2)nc1NC(=O)N1CCC(c2ncccn2)C1 (single isomer, unassigned) [Compound 19E1]
Solution: 5.70 to 6.00

Exercise: Now consider Cc1ccnc(C2CCN(C(=O)Nc3nc(-c4ccc(F)cc4)ccc3N)C2)n1 (single isomer, unassigned) [Compound 50] and answer again.
Solution: < 5.70

Exercise: Now consider Cc1ccc(CC2CCN(C(=O)Nc3nc(-c4ccc(F)cc4F)ccc3N)C2)nn1 (stereo not shown) [Compound 28] and answer again.
Solution: 5.70 to 6.00

Exercise: Now consider Nc1ccc(-c2ccc(F)cc2F)nc1NC(=O)N1CCC(Oc2cccnn2)C1 (stereo not shown) [Compound 22] and answer again.
Solution: < 5.70

Exercise: Now consider Cc1ccnc(C2CCN(C(=O)Nc3nc(-c4ccc(F)cc4)ccc3N)C2)n1 (single isomer, unassigned) [Compound 51] and answer again.
Solution: 5.70 to 6.00
